# Study system: human recombinant Monoacylglycerol Lipase (Homo sapiens, UniProt Q99685)
# Sequence (Q99685 whole entry): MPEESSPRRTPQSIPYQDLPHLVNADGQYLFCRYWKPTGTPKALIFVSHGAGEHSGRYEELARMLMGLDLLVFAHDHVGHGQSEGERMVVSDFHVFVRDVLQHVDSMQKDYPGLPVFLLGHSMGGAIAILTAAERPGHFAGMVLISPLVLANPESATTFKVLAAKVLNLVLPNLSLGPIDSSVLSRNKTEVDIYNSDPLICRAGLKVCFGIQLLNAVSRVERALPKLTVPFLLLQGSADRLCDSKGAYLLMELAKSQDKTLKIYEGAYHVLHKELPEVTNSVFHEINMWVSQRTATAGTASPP
# Test method notes: MAGL inactivation (kinact/KI from enzyme progress curves, T=0 min protocol)
# Condition label: from plot of Kobs vs. compound concentration, geometric mean of 2-5 determinations (b: ≥6)
The reader will find reported MAGL kinact/KI values listed item by item below.

Please review the following examples before continuing.
O=C(O[C@H](CO)C(F)(F)F)N1CCC2(CC1)CC(c1ccc(F)cc1)CO2 (single isomer, unassigned) ... 7920 1/s per M
N#Cc1ccc(C2COC3(CCN(C(=O)O[C@H](CO)C(F)(F)F)CC3)C2)nc1 (single isomer, unassigned) ... 1610 1/s per M
O=C(O[C@H](CO)C(F)(F)F)N1CCC2(CC1)CC(c1ccc(C(F)F)nc1)CO2 (single isomer, unassigned) [Example 37] ... 3840 1/s per M
O=C(O[C@H](CO)C(F)(F)F)N1CCC2(CC1)CC(c1ccccn1)CO2 (single isomer, unassigned) ... 13200 1/s per M
CN([C@H]1COC2(CCN(C(=O)O[C@H](CO)C(F)(F)F)CC2)C1)S(=O)(=O)CC1CC(F)(F)C1 ... 2770 1/s per M

Query: Field request: MAGL kinact/KI | item: "CN(C1CC2(CCN(C(=O)O[C@H](CO)C(F)(F)F)CC2)C1)S(=O)(=O)CC1CC1"
Reply: 14900 1/s per M

Query: Endpoint output: MAGL kinact/KI of N#Cc1ccc(C2COC3(CCN(C(=O)O[C@H](CO)C(F)(F)F)CC3)C2)cc1 (single isomer, unassigned) . Value?
Reply: 8060 1/s per M

Query: So what does the record say about MAGL kinact/KI for "O=C(O[C@H](CO)C(F)(F)F)N1CCC2(CC1)CC(c1ccc(F)cn1)C2" ?
Reply: 33800 1/s per M

Query: Quick one: MAGL kinact/KI for "O=C(O[C@H](CO)C(F)(F)F)N1CCC2(CC1)CC(c1ccccn1)C2" ?
Reply: 20400 1/s per M

Query: Recorded MAGL kinact/KI for O=C(O[C@H](CO)C(F)(F)F)N1CCC2(CC1)CC(n1cc(C(F)(F)F)cn1)CO2 (single isomer, unassigned) [Example 8] , please?
Reply: 2880 1/s per M

Query: Bench note: what MAGL kinact/KI did "O=C(O[C@H](CO)C(F)(F)F)N1CCC2(CC1)CC(c1cccc(C(F)(F)F)n1)C2" show?
Reply: 206000 1/s per M
